assay: clinical; type: in vivo, human; settings: human, plasma, oral, 10 mg, 14 days, Day 14, ≥ 60 years, mean (CV%)
Readout: Cmax (ng/mL)
Numbers only, in ng/mL.

Cmax for C[C@@]1(c2nc(NC(=O)c3ncc(C(F)(F)F)cc3Cl)ccc2F)CO[C@@](C)(C(F)(F)F)C(N)=N1 is 84.3

###

assay: clinical; assay type: in vivo, human; conditions: human, plasma, oral, 1250 mg, single dose 1250 mg, adults (2), individual data points; read-out: T1/2 (converted)
Readout: half-life

half-life for C[C@@]1(c2nc(NC(=O)c3ncc(C(F)(F)F)cc3Cl)ccc2F)CO[C@@](C)(C(F)(F)F)C(N)=N1 [CNP520] is 76.4 h

###

assay: clinical; assay type: in vivo, human; conditions: human, plasma, oral, 10 mg, AUC 0–24h, 10 mg, 3 months, Day 91, mean (CV%)
Readout: AUC(0-t) (ng·h/mL)
One number for each entry, in ng·h/mL.

AUC(0-t) for C[C@@]1(c2nc(NC(=O)c3ncc(C(F)(F)F)cc3Cl)ccc2F)CO[C@@](C)(C(F)(F)F)C(N)=N1 [CNP520] is 1500

###

experiment: clinical; format: in vivo, human; conditions: human, plasma, oral, 90 mg, 14 days, Day 14, median (min–max)
Readout: Tmax
Give the number first and the unit second.

Tmax for C[C@@]1(c2nc(NC(=O)c3ncc(C(F)(F)F)cc3Cl)ccc2F)CO[C@@](C)(C(F)(F)F)C(N)=N1 is 3 h

###

test: clinical; type: in vivo, human; conditions: human, plasma, oral, 750 mg, single dose 750 mg, adults (6), mean (%CV); read-out: T1/2 (converted)
Readout: half-life
Give the number first and the unit second.

half-life for C[C@@]1(c2nc(NC(=O)c3ncc(C(F)(F)F)cc3Cl)ccc2F)CO[C@@](C)(C(F)(F)F)C(N)=N1 [CNP520] is 83.8 h

###

experiment: clinical; assay type: in vivo, human; settings: human, plasma, oral, 750 mg, single dose 750 mg, adults (6), mean (%CV); read-out: Cmax
Readout: Cmax (ng/mL)
Numbers only, in ng/mL.

Cmax for C[C@@]1(c2nc(NC(=O)c3ncc(C(F)(F)F)cc3Cl)ccc2F)CO[C@@](C)(C(F)(F)F)C(N)=N1 is 1150

###

assay: clinical; type: in vivo, human; conditions: human, plasma, oral, 90 mg, single dose 90 mg, adults ≥ 60 years (6), median (min–max); read-out: Tmax
Readout: Tmax (h)
One number for each entry, in h.

Tmax for C[C@@]1(c2nc(NC(=O)c3ncc(C(F)(F)F)cc3Cl)ccc2F)CO[C@@](C)(C(F)(F)F)C(N)=N1 [CNP520] is 2.02

###

assay: clinical; assay type: in vivo, human; settings: human, plasma, oral, 300 mg, single dose 300 mg, adults (6), mean (%CV); read-out: Cmax
Readout: Cmax
Give the number first and the unit second.

Cmax for C[C@@]1(c2nc(NC(=O)c3ncc(C(F)(F)F)cc3Cl)ccc2F)CO[C@@](C)(C(F)(F)F)C(N)=N1 is 498 ng/mL

###

test: clinical; format: in vivo, human; conditions: both sexes, human, plasma, oral, 30 mg, 14 days, Day 14, median (min–max)
Readout: Tmax
Give the number first and the unit second.

Tmax for C[C@@]1(c2nc(NC(=O)c3ncc(C(F)(F)F)cc3Cl)ccc2F)CO[C@@](C)(C(F)(F)F)C(N)=N1 is 3 h

###

test: clinical; type: in vivo, human; details: human, plasma, oral, 30 mg, single dose 30 mg, adults (12), mean (%CV); read-out: T1/2 (converted)
Readout: half-life (h)
Give bare numbers, in h.

half-life for C[C@@]1(c2nc(NC(=O)c3ncc(C(F)(F)F)cc3Cl)ccc2F)CO[C@@](C)(C(F)(F)F)C(N)=N1 is 64.3

###

test: clinical; type: in vivo, human; conditions: human, plasma, oral, 750 mg, single dose 750 mg, adults ≥ 60 years (20), mean (%CV); read-out: Cmax
Readout: Cmax (ng/mL)
One number for each entry, in ng/mL.

Cmax for C[C@@]1(c2nc(NC(=O)c3ncc(C(F)(F)F)cc3Cl)ccc2F)CO[C@@](C)(C(F)(F)F)C(N)=N1 is 1120

###

Assay: clinical
Type: in vivo, human
Conditions: human, plasma, oral, 300 mg, single dose 300 mg, adults (6), mean (%CV); read-out: T1/2 (converted)
Description: The lower limit of quantification (LLOQ) was 1 ng/ml in plasma and 2 ng/ml in urine and CSF, except for the 3‐month study where the method for CSF was more sensitive (LLOQ 0.1 ng/ml). Plasma PK parameters were calculated using actual recorded sampling times and non‐compartmental methods with Phoenix WinNonlin version 6.4 (Certara, Inc., Princeton, NJ, USA). For further details, see the Appendix Table S10 in Appendix and the accompanying clinical protocols synopsis (Appendix Table S11).
Readout: half-life (days)
Give bare numbers, in days.

half-life for C[C@@]1(c2nc(NC(=O)c3ncc(C(F)(F)F)cc3Cl)ccc2F)CO[C@@](C)(C(F)(F)F)C(N)=N1 is 2.41

###

assay: clinical; format: in vivo, human; conditions: both sexes, human, CSF, oral; 2 mg q.d., 3 month study, mean (CV %); read-out: CSF conc 24h after dose Day 91
Readout: concentration at 24 h (ng/mL)
Answers are plain numbers, in ng/mL.

concentration at 24 h for C[C@@]1(c2nc(NC(=O)c3ncc(C(F)(F)F)cc3Cl)ccc2F)CO[C@@](C)(C(F)(F)F)C(N)=N1 [CNP520] is 0.305

###

assay: clinical; assay type: in vivo, human; conditions: human, plasma, oral, 90 mg, single dose 90 mg, adults (6), mean (%CV); read-out: T1/2 (converted)
Readout: half-life
Give the number first and the unit second.

half-life for C[C@@]1(c2nc(NC(=O)c3ncc(C(F)(F)F)cc3Cl)ccc2F)CO[C@@](C)(C(F)(F)F)C(N)=N1 [CNP520] is 66.2 h

###

test: clinical; format: in vivo, human; conditions: human, plasma, oral, 75 mg, AUC 0–72h, food effect, 75 mg Fed (10), adults, mean (%CV)
Readout: AUC(0-t) (ng·h/mL)
Answers are plain numbers, in ng·h/mL.

AUC(0-t) for C[C@@]1(c2nc(NC(=O)c3ncc(C(F)(F)F)cc3Cl)ccc2F)CO[C@@](C)(C(F)(F)F)C(N)=N1 [CNP520] is 4870

###

experiment: clinical; format: in vivo, human; details: human, plasma, oral, 85 mg, AUC 0–24h, 85 mg, 3 months, Day 91, mean (CV%)
Readout: AUC(0-t) (ng·h/mL)
Give bare numbers, in ng·h/mL.

AUC(0-t) for C[C@@]1(c2nc(NC(=O)c3ncc(C(F)(F)F)cc3Cl)ccc2F)CO[C@@](C)(C(F)(F)F)C(N)=N1 is 11200

###

experiment: clinical; format: in vivo, human; conditions: human, plasma, oral, 300 mg, AUC 0–24h, 300 mg, 14 days, Day 14, mean (CV%)
Readout: AUC(0-t) (ng·h/mL)
Answers are plain numbers, in ng·h/mL.

AUC(0-t) for C[C@@]1(c2nc(NC(=O)c3ncc(C(F)(F)F)cc3Cl)ccc2F)CO[C@@](C)(C(F)(F)F)C(N)=N1 is 28300

###

assay: clinical; format: in vivo, human; conditions: human, plasma, oral, 2 mg, 3 months, Day 91, ≥ 60 years, mean (CV%)
Readout: Cmax

Cmax for C[C@@]1(c2nc(NC(=O)c3ncc(C(F)(F)F)cc3Cl)ccc2F)CO[C@@](C)(C(F)(F)F)C(N)=N1 [CNP520] is 16.6 ng/mL

###

assay: clinical; assay type: in vivo, human; settings: human, plasma, oral, 1250 mg, single dose 1250 mg, adults (2), individual data points; read-out: Tmax
Readout: Tmax

Tmax for C[C@@]1(c2nc(NC(=O)c3ncc(C(F)(F)F)cc3Cl)ccc2F)CO[C@@](C)(C(F)(F)F)C(N)=N1 is 4 h

###

test: clinical; type: in vivo, human; settings: both sexes, human, CSF, oral; 300 mg q.d., 2 weeks, mean (CV %); read-out: CSF conc 24h after dose Day 14
Readout: concentration at 24 h (ng/mL)
One number for each entry, in ng/mL.

concentration at 24 h for C[C@@]1(c2nc(NC(=O)c3ncc(C(F)(F)F)cc3Cl)ccc2F)CO[C@@](C)(C(F)(F)F)C(N)=N1 is 29.8

###

experiment: clinical; type: in vivo, human; settings: human, plasma, oral, 2 mg, AUC 0–24h, 2 mg, 3 months, Day 91, mean (CV%)
Readout: AUC(0-t) (ng·h/mL)
Give bare numbers, in ng·h/mL.

AUC(0-t) for C[C@@]1(c2nc(NC(=O)c3ncc(C(F)(F)F)cc3Cl)ccc2F)CO[C@@](C)(C(F)(F)F)C(N)=N1 [CNP520] is 313

###

experiment: clinical; type: in vivo, human; conditions: human, plasma, oral, 90 mg, single dose 90 mg, adults (6), median (min–max); read-out: Tmax
Readout: Tmax (h)
One number for each entry, in h.

Tmax for C[C@@]1(c2nc(NC(=O)c3ncc(C(F)(F)F)cc3Cl)ccc2F)CO[C@@](C)(C(F)(F)F)C(N)=N1 is 3.5
